Please respond with reported kon for every item in the list.
test system: T1, recombinant human ErbB3 monomeric protein (cleaved rhErbB3) (human, UniProt P21860 20-643, limits assumed)
T1 construct: Monomer made by protease cleavage of the Fc fusion; also called Monomeric ErbB3
method description: SPR Biacore 37 C; supernatant antibody captured on anti-human Fc, cleaved rhErbB3 injected
# unit: M⁻¹ s⁻¹ | format: bare number

Challenge: So what does the record say about kon for Sh24C05-31 (antibody, human IgG1, kappa, V domains shown, Humanized, human IgG1/kappa) VH: QVQLVESGGGLVKPGGSLRLSCAASGFTFSDYAMSWIRQAPGKGLEWVSTISDGGTYTYYPDNVKGRFTISRDNAKNSLYLQMNSLRAEDTAVYYCAREWGDYDGFDYWGQGTLVTVSS VL: DIQMTQSPSSLSASVGDRVTITCRASQEISGYLSWYQQKPGKAPKRLIYAASTLDSGVPSRFSGSGSGTEFTLTISSLQPEDFATYYCLQYDSYPYTFGQGTKLEIKR ?
Response given: 3.47e+06

Challenge: So what does the record say about kon for Sh24C05-43 (antibody, human IgG1, kappa, V domains shown, Humanized, human IgG1/kappa) VH: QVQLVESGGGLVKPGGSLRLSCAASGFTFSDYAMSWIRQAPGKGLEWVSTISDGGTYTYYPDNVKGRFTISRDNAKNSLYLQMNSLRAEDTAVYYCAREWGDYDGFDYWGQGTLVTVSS VL: DIQLTQSPSFLSASVGDRVTITCRASQEISGYLSWYQQKPGKAPKLLIYAASTLDSGVPSRFSGSGSGTEFTLTISSLQPEDFATYYCLQYDSYPYTFGQGTKLEIKR ?
Response given: 6.16e+06

Challenge: So what does the record say about kon for Sh24C05-16 (antibody, human IgG1, kappa, V domains shown, Humanized, human IgG1/kappa) VH: EVQLLESGGGLVQPGGSLRLSCAASGFTFSDYAMSWVRQAPGKGLEWVSTISDGGTYTYYPDNVKGRFTISRDNSKNTLYLQMNSLRAEDTAVYYCAREWGDYDGFDYWGQGTLVTVSS VL: DIQMTQSPSSLSASVGDRVTITCRASQEISGYLSWLQQKPGGAIKRLIYAASTLDSGVPSRFSGSGSGSDYTLTISSLQPEDFATYYCLQYDSYPYTFGQGTKLEIKR ?
Response given: 2.75e+06

Challenge: So what does the record say about kon for Sh24C05-34 (antibody, human IgG1, kappa, V domains shown, Humanized, human IgG1/kappa) VH: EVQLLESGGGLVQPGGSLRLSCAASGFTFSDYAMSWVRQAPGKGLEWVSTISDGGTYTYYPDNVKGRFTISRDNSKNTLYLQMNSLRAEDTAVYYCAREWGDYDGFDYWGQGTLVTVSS VL: DIQMTQSPSSLSASVGDRVTITCRASQEISGYLSWYQQKPGKAPKLLIYAASTLDSGVPSRFSGSGSGTDFTFTISSLQPEDIATYYCLQYDSYPYTFGQGTKLEIKR ?
Response given: 1.09e+07

Challenge: So what does the record say about kon for Sh24C05-21 (antibody, human IgG1, kappa, V domains shown, Humanized, human IgG1/kappa) VH: EVQLVESGGGLVKPGGSLRLSCAASGFTFSDYAMSWVRQAPGKGLEWVSTISDGGTYTYYPDNVKGRFTISRDNAKNSLYLQMNSLRAEDTAVYYCAREWGDYDGFDYWGQGTLVTVSS VL: DIQMTQSPSSLSASVGDRVTITCRASQEISGYLSWFQQKPGKAPKSLIYAASTLDSGVPSRFSGSGSGTDFTLTISSLQPEDFATYYCLQYDSYPYTFGQGTKLEIKR ?
Response given: 3.11e+06

Challenge: So what does the record say about kon for Sh24C05-40 (antibody, human IgG1, kappa, V domains shown, Humanized, human IgG1/kappa) VH: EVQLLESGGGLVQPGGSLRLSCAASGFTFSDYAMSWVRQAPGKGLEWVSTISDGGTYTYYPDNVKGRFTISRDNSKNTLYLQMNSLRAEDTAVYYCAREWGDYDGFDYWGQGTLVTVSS VL: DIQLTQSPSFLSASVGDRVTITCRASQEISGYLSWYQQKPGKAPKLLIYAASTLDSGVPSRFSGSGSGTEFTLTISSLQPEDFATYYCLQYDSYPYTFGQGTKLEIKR ?
Response given: 2.11e+07
